# System: A549 NSCLC
# protocol.notes: NCI tumour cell line growth inhibition, 48 h
measured.metric: TGI

- compound: "Cc1cc(N(CCC#N)CCC#N)ccc1/C=C(\\NC(=O)/C=C/c1ccccc1)C(=O)Nc1ccc(Cl)cc1"
  target.system: "A549 NSCLC"
  measured.metric: "TGI"
  experimental.result: "> 100 µM"
- compound: "CC(C)=CCC/C(C)=C/Cc1c(O)c(C)cc2c1[nH]c1cc(O)ccc12"
  target.system: "A549 NSCLC"
  measured.metric: "TGI"
  experimental.result: "> 25 µM"
- compound: "CC(=O)N1C(CCc2ccccc2)CC(C)(C=O)C1Cc1ccc(O[Si](C(C)C)(C(C)C)C(C)C)cc1 (stereo not drawn)"
  target.system: "A549 NSCLC"
  measured.metric: "TGI"
  experimental.result: "15.2 µM"
- compound: "Cc1nc2c(O)c3c(c(O)c2nc1C)C1C=CC3CC1"
  target.system: "A549 NSCLC"
  measured.metric: "TGI"
  experimental.result: "63.5 µM"
- compound: "CCOC(=O)/C(C#N)=C\\Sc1ccccc1"
  target.system: "A549 NSCLC"
  measured.metric: "TGI"
  experimental.result: "> 100 µM"
- compound: "COc1ccc(C[C@@H](C(=O)O[C@H](C)[C@H](NC(=O)[C@@H](CC(C)C)N(C)C(=O)C2CCCN2C(=O)[C@H](C)O)C(=O)N2CCCCNC(=O)[C@@H](C)C(=O)[C@H](C(C)C)OC(=O)C[C@H](O)[C@H]2CC(C)C)N(C)C(C)=O)cc1 (stereo partly drawn)"
  target.system: "A549 NSCLC"
  measured.metric: "TGI"
  experimental.result: "> 50 µM"
- compound: "C[C@]12CC(C=O)C(=O)C(O)=C1CC[C@@H]1C2CC[C@@]2(C)C1CC[C@]2(C)O (stereo partly drawn)"
  target.system: "A549 NSCLC"
  measured.metric: "TGI"
  experimental.result: "> 100 µM"
- compound: "C[C@@H](NC(=O)Cn1c(Cl)nc2ccccc21)c1ccccc1"
  target.system: "A549 NSCLC"
  measured.metric: "TGI"
  experimental.result: "> 100 µM"

====

# Tested on: NCI/ADR-RES ovarian
# protocol.notes: NCI tumour cell line growth inhibition, 48 h; in the data active = GI50 below about 0.43 µM; inactive = the rest
Outcome codes: active, inactive

- compound: "COC(=O)c1ccc(NC(=O)c2ccc(NC3=C(Cl)C(=O)N(Cc4ccccc4)C3=O)cc2)cc1"
  class.name: "inactive"
- compound: "COc1cc2c3c(n(CCN4CCOCC4)c(=O)c2cc1OC)-c1ccccc1C3=O"
  class.name: "inactive"
- compound: "C[C@@H](CS[As](C)C)C(=O)N1CCC[C@H]1C(=O)O"
  class.name: "active"
- compound: "Cc1c(Cl)cccc1NC(=O)c1sc2nc3c(cc2c1N)C(=O)CCC3"
  class.name: "active"
- compound: "CC1=CC(C)(C)Nc2ccc(Cc3ccc4c(c3)C(C)=CC(C)(C)N4)cc21"
  class.name: "inactive"
- compound: "O=c1cc(-c2ccccc2)oc2cc(OCCCCCN3CCOCC3)cc(O)c12"
  class.name: "inactive"
- compound: "CSc1nnc(-c2cc3c([nH]c4ccccc43)c(-c3cccc(O)c3)n2)n1-c1ccc(C)cc1"
  class.name: "inactive"
- compound: "CNCC(=O)NC(CO)C(=O)NC(CO)C(=O)NC1C(C(N)=O)OC(n2ccc(N)nc2=O)C(O)C1O (configuration not stated)"
  class.name: "inactive"
- compound: "COc1cccc(N2CCN(c3ncnc4cc[nH]c34)CC2)c1"
  class.name: "inactive"
- compound: "Cc1nn(Cc2ccccc2)cc1C(=O)Nc1sc2c(c1C(N)=O)CCC(=O)C2"
  class.name: "inactive"
- compound: "CC(=O)c1ccc2c3c1[C@H]1O[C@H]1c1cccc(c1-3)[C@@H]1O[C@H]21"
  class.name: "inactive"
- compound: "C#CCOc1cccc(Nc2ncnc3cc(NC(=O)C=C)ccc23)c1"
  class.name: "inactive"

====

In this section we review reported TGI values for a set of compounds.
# Test system: NCI/ADR-RES ovarian
# protocol.notes: NCI tumour cell line growth inhibition, 48 h

- compound: "CCN(CC)S(=O)(=O)c1cccc(-c2ccc3c(NC(=O)C4CC4)n[nH]c3c2)c1"
  target.system: "NCI/ADR-RES ovarian"
  TGI: "> 6.25 µM"
- compound: "COC(=O)c1ccc(NC(=O)c2ccc(NC3=C(Cl)C(=O)N(Cc4ccccc4)C3=O)cc2)cc1"
  target.system: "NCI/ADR-RES ovarian"
  TGI: "27 µM"
- compound: "COC1(OC)N=C(N)C2(C#N)C(C)=C3NCN(C)N=C3C12C#N (stereo not given)"
  target.system: "NCI/ADR-RES ovarian"
  TGI: "> 100 µM"
- compound: "c1ccc2c(c1)SP1Sc3ccccc3P21 (stereo not given)"
  target.system: "NCI/ADR-RES ovarian"
  TGI: "> 100 µM"
- compound: "CC(C)(O)CCc1cccc(C(=O)c2cnn(-c3ccc(F)cc3)c2N)c1"
  target.system: "NCI/ADR-RES ovarian"
  TGI: "> 25 µM"
- compound: "CCC[n+]1cc2cc3c(cc2c2c1-c1cc4c(cc1C2)OCO4)OCO3 (tested in a mixture with another compound)"
  target.system: "NCI/ADR-RES ovarian"
  TGI: "> 100 µM"
- compound: "Cc1cc2c(nn1)CCc1c-2no[n+]1[O-]"
  target.system: "NCI/ADR-RES ovarian"
  TGI: "> 100 µM"
- compound: "COc1cccc(N2CCN(c3ncnc4cc[nH]c34)CC2)c1"
  target.system: "NCI/ADR-RES ovarian"
  TGI: "40.4 µM"
- compound: "C[C@@]1(C(=O)O)CCC[C@]2(C)C1CC[C@]13C[C@@](O)(CO)[C@](O)(CC[C@]12O)C3 (stereo not given in full)"
  target.system: "NCI/ADR-RES ovarian"
  TGI: "> 100 µM"
- compound: "COc1cc2c(c(OC)c1OC)C(=O)[C@@H](O)[C@H]2NC(N)=O"
  target.system: "NCI/ADR-RES ovarian"
  TGI: "> 100 µM"

====

# Test system: SK-MEL-5 melanoma
# protocol.notes: NCI tumour cell line growth inhibition, 48 h

- compound: "CC(=O)CCc1ccc(Oc2c3c(nc4ccccc24)OCC3)cc1"
  GI50: "16600 nM"
- compound: "CC1=NN(c2cccc(Cl)c2)C(=O)/C1=C\\C=C\\c1ccccc1"
  GI50: "2270 nM"
- compound: "CC(=O)[CH-]C(=O)c1ccccc1.CC(=O)[CH-]C(=O)c1ccccc1.CC[C@H](/C=C/C(C)[C@H]1CCC2[C@@H]3CC=C4C[C@@H]([O-])CC[C@]4(C)C3CC[C@@]21C)C(C)C.CC[C@H](/C=C/C(C)[C@H]1CCC2[C@@H]3CC=C4C[C@@H]([O-])CC[C@]4(C)C3CC[C@@]21C)C(C)C.Cl.[Ti+4] (some centres not stated)"
  GI50: "> 25000 nM"
- compound: "Cc1c(Cl)cccc1NC(=O)c1sc2nc3c(cc2c1N)C(=O)CCC3"
  GI50: "130 nM"
- compound: "Oc1ccc(Cl)cc1Sc1cc(Cl)ccc1O"
  GI50: "1920 nM"
- compound: "C=C1C(=O)O[C@H]2[C@H]1CC/C(COC(=O)CCCCCCCC(=O)OC/C1=C/CC[C@@]3(C)O[C@H]3[C@H]3OC(=O)C(=C)[C@@H]3CC1)=C\\CC[C@@]1(C)O[C@@H]21"
  GI50: "1980 nM"
- compound: "Cc1nc2sc(C(=O)Nc3ccccc3)c(N)c2cc1C(O)c1ccccc1 (configuration not stated)"
  GI50: "338 nM"

====

# System: XF 498 CNS
# protocol.notes: NCI tumour cell line growth inhibition, 48 h

- molecule: "O=C1C(Cl)=C(Cl)C(=O)N1c1cccc(C(F)(F)F)c1"
  TGI: "> 100 µM"
- molecule: "O=C1NC2C3CC(OCc4ccccc4)(OCc4ccccc4)C2OC3O1 (stereo unspecified)"
  TGI: "> 50 µM"
- molecule: "NC(=O)C(=O)C1C(=O)N(c2ccccc2)N=C1N (stereo unspecified)"
  TGI: "> 100 µM"
- molecule: "O=C(O)/C(Cl)=C(Cl)/C=N/NC(=O)c1cc2ccccc2cc1O"
  TGI: "> 100 µM"
- molecule: "COc1ccc(/C=C\\c2cc(OC)c(OC)c(OC)c2)cc1OC(=O)CC(N)C(=O)O (stereo unspecified)"
  TGI: "0.00792 µM"
- molecule: "O=C1NC2(CCCCC2)C2CCCCC=C12 (stereo unspecified)"
  TGI: "> 100 µM"
- molecule: "CN(C)c1cccc(OC(=O)NCCCl)c1"
  TGI: "> 100 µM"
- molecule: "c1ccc2c(c1)SP1Sc3ccccc3P21 (stereo unspecified)"
  TGI: "> 100 µM"
- molecule: "COc1cc(C2c3cc4c(cc3[C@@H](Nc3ccc([N+](=O)[O-])cc3)C3COC(=O)[C@H]23)OCO4)cc(OC)c1O (stereo partly specified)"
  TGI: "15 µM"
- molecule: "CCOC(=O)C1=C(O)C(=O)c2ccoc2C1=O"
  TGI: "> 100 µM"
- molecule: "Nc1ccc(Cn2ccc3c4c(N)nc(N)nc4ccc32)cc1"
  TGI: "2.9 µM"

Hey, just so you know, these numbers are from PubChem BioAssay (NCI).
